Sourced from patent US10899747B2

Test system: IL-2
Assay: PHA-IL2 (cell activation and cytokine analysis)
Format: cell-based
Conditions: 50% inhibition concentration class
Source text: Cells to be tested may include, but are not limited to, a) Jurkat (a transformed human T cell leukemia), b) whole blood isolated from human or rodent sources, c) peripheral blood mononuclear cells (PBMC) freshly isolated from human or rodent whole blood, or d) purified fractions of PBMC (e.g., CD4 T cells). […] Cytokines to be analyzed may include IL-2, IL-4, IL-10, IL-17, IL-22, IFNγ, and/or TNFα. […]
Reported IC50 values for the following compounds.

get_value(item= O=C(COc1ccccc1-c1cccc(O)c1)N1CCC(CCc2ccc3c(c2)OCO3)CC1 [Compound 160] , readout=IC50) returns 1 to 10 µM

get_value(item= CN(C)c1ccc(-c2ccccc2OCC(=O)N2CCC(CCc3ccc4c(c3)OCO4)CC2)cc1 [Compound 213] , readout=IC50) returns 10 to 50 µM

get_value(item= O=C(COc1cccnc1-c1ccc(F)cc1O)N1CCC(CCc2cccc(OCCN3CCCCC3)c2)CC1 [Compound 360] , readout=IC50) returns 1 to 10 µM

get_value(item= O=C(COc1ccccc1-c1ccc(OC(F)(F)F)cc1)N1CCC(CCc2ccc3c(c2)OCO3)CC1 [Compound 178] , readout=IC50) returns 1 to 10 µM

Continue with the next compound.
get_value(item= Cc1cnc(C#CC2CCN(C(=O)COc3ccc(C#N)cc3-c3ccc(C#N)cc3)CC2)cn1 [Compound 425] , readout=IC50) returns 1 to 10 µM
